All figures here come from PubChem BioAssay (Tox21).

Assay: qHTS RealTime-Glo MT Cell Viability Assay in HEK293 cells - 8 hour (AID 1224887); further: top concentration of the series differs between compounds; on the % scale 0 is the no-effect control and ±100 the full control effect; nearly all actives have a fitted effect of over 50% in size
Details: RealTime-Glo luminescence; series mostly up to 76.8 µM
Description: U.S. Tox21 Program National Center for Advancing Translational Sciences [NCATS] NIH Chemical Genomics Center [NCGC] U.S. Environmental Protection Agency [EPA] National Institutes of Environmental Health Sciences [NIEHS] National Toxicology Program [NTP] U.S. Food and Drug Administration [FDA] Tox21 Assay Overview: Measure of cell viability is critical in the cell-base assay. Analysis of cell viability is necessary for the characterization of cell responses to cytotoxic drugs and environmental stress. […]
Results filed as inconclusive are left out. The source made the active and inactive calls. The call rests on the fitted dose curve; in most records, active means well fitted cell-killing curve with a large enough effect in the repeat runs; inconclusive means weak or mixed curves, or effect the other way; inactive means flat fitted curve, though single readings scatter.
value.kind: activity change, negative = cytotoxicity

Input line: Return activity change, negative = cytotoxicity (reported value) for this compound: NC(N)=NCCN1CCCCCCC1
Output line: -0.479% [at 0.29 µM] (inactive)

Input line: Return activity change, negative = cytotoxicity (reported value) for this compound: COc1ccnc(CS(=O)c2nc3cc(OC(F)F)ccc3[nH]2)c1OC (centres undefined)
Output line: inactive

Input line: Return activity change, negative = cytotoxicity (reported value) for this compound: O=Cc1cccc(Br)c1
Output line: inactive

Input line: Return activity change, negative = cytotoxicity (reported value) for this compound: CCCC(=O)O[C@]1(C(=O)CC)CC[C@H]2[C@@H]3CCC4=CC(=O)CC[C@]4(C)[C@H]3[C@@H](O)C[C@@]21C
Output line: inactive

Input line: Return activity change, negative = cytotoxicity (reported value) for this compound: CC(C)=CCC/C(C)=C/C#N
Output line: inactive

# per-item lookup of activity change, negative = cytotoxicity; items listed below
1. CCOc1ccccc1OCC
2. Nc1ccccn1
3. CC(C)c1ccc2ncccc2c1
4. COc1cc(C(=O)NCc2ccc(OCCN(C)C)cc2)cc(OC)c1OC

Output line:
1: inactive; 2: inactive; 3: inactive; 4: inactive
